Sourced from patent US20160368965A1

- studySystem: T1, HLA-A*02:01 (human)
- T1 construct: the tested peptide takes its place; also called peptide-receptive MHC molecules; MHC class I
- methodDescription: UV-ligand exchange, anti-β2m ELISA; grade of peptide exchange yield
outcomeMeasure: peptide exchange yield

// below: answered binders
{"binder": "ALYDVRTILL [ALYDVRTILL (SEQ ID NO: 128)]", "peptide exchange yield": "50 to 75%"}
{"binder": "VLGDDPQLMKV [VLGDDPQLMKV (SEQ ID NO: 119)]", "peptide exchange yield": "50 to 75%"}
{"binder": "FVYGGPQVQL [FVYGGPQVQL (SEQ ID NO: 107)]", "peptide exchange yield": "50 to 75%"}
{"binder": "FLEDDDIAAV [FLEDDDIAAV (SEQ ID NO: 34)]", "peptide exchange yield": "20 to 50%"}
{"binder": "FLSEVFHQA [FLSEVFHQA (SEQ ID NO: 105)]", "peptide exchange yield": "50 to 75%"}
{"binder": "VMMEEFVQL [VMMEEFVQL (SEQ ID NO: 94)]", "peptide exchange yield": "50 to 75%"}
{"binder": "NLAPAPLNA [NLAPAPLNA (SEQ ID NO: 55)]", "peptide exchange yield": "20 to 50%"}
{"binder": "KLGPEGELL [KLGPEGELL (SEQ ID NO: 137)]", "peptide exchange yield": "50 to 75%"}

Quick note, peptide exchange yield for TLFSEPKFAQV [TLFSEPKFAQV (SEQ ID NO: 64)] landed at ≥ 75%

Quick note, peptide exchange yield for ILIGETIKI [ILIGETIKI (SEQ ID NO: 3)] landed at 50 to 75%

Quick note, peptide exchange yield for ALDDMISTL [ALDDMISTL (SEQ ID NO: 97)] landed at 50 to 75%

Quick note, peptide exchange yield for ILSDMRSQYEV [ILSDMRSQYEV (SEQ ID NO: 42)] landed at 50 to 75%

Quick note, peptide exchange yield for ALLEPEFILKA [ALLEPEFILKA (SEQ ID NO: 152)] landed at ≥ 75%

Quick note, peptide exchange yield for ALYYNPHLL [ALYYNPHLL (SEQ ID NO: 11)] landed at 20 to 50%

Quick note, peptide exchange yield for VIWGTDVNV [VIWGTDVNV (SEQ ID NO: 67)] landed at ≥ 75%

Quick note, peptide exchange yield for KLLTPITTL [KLLTPITTL (SEQ ID NO: 90)] landed at 50 to 75%
